Data origin, for the record: patent US20250062040A1

- System: Q175 heterozygous (HET) mice model of Huntington Disease
- assay method text: DBSA query with Q175 HET target signature
- Format: in vivo
- run conditions: Q175 HET at 6 months vs WT
measured endpoint: DBSA prediction against Q175 HET target signature

compound	reported
NC(=O)C[S+]([O-])C(c1ccccc1)c1ccccc1 (stereo not shown)	top predictions
CC(NC(C)(C)C)C(=O)c1cccc(Cl)c1 (stereo not shown)	top predictions
COC(=O)C(c1ccccc1)C1CCCCN1 (stereo not shown) [methylphenidate]	top predictions
